- Test system: TK-10
- assay: NCI tumour cell line growth inhibition, 48 h
Calls of active or inactive are those of the source. No stated cut-off is given here; in the data, active = GI50 up to about 1.1 µM and inactive = higher.
Answer each item with its documented GI50.

Give the measured GI50 of CC(=O)OC1=C(CC(C)(C)C)C(=O)c2ccccc2C1=O . 68.9 µM (inactive)

// lookup GI50 for [N-]=[N+]=Nc1c(Cl)c(Cl)nc2ccccc12 95.9 µM (inactive)

Recorded GI50 of CO/N=C(/C(=O)N(C(=O)/C(=N/OC)c1csc(NC(c2ccccc2)(c2ccccc2)c2ccccc2)n1)n1cnn(CC(=O)OC(C)(C)C)c1=O)c1csc(NC(c2ccccc2)(c2ccccc2)c2ccccc2)n1 , please. > 10 µM (inactive)

Given c1cc2ccc3cc4ncccc4c4ccc(c1)c2c34 , state its recorded GI50. 22.8 µM (inactive)

Requested field: GI50. Item: O=c1[nH]c(=O)n(C2CC(O)C(CO)O2)cc1I (stereo not given) > 100 µM (inactive)

Entry CCOC(=O)C(=[N+]=[N-])C(=O)C1(C(=O)OCC)CCN(C(=O)c2ccccc2)C1=O (stereo not given) : reported GI50 = ? > 100 µM (inactive)

Would you mind telling me what GI50 value was observed for O=C(c1ccco1)N(C(=S)N1CCN(c2ccccc2)CC1)C1CCCCC1 ? > 100 µM (inactive)

Which value of GI50 has been reported for COc1ccc(C(O)c2ccccn2)cc1 (stereo not given) in the records? > 100 µM (inactive)

Please look up its GI50: COC(=O)C1(C(=O)OC)CC2=C(S(=O)(=O)c3ccccc3)C[C@H](C#N)[C@H]2C1 > 100 µM (inactive)

// returns reported GI50 for input O=C1C=CC(=O)N1c1ccc(I)cc1 16.4 µM (inactive)

====

- Test system: CAKI-1
- assay: NCI tumour cell line growth inhibition, 48 h
Activity calls are given as the source filed them. Rule as the data show it: active = GI50 up to about 1.1 µM and inactive = higher.
Choose one outcome from this list and give only that: active, inactive

For CC(C)(C)[C@H]1CO[C@]2(c3ccccc3)[C@@H]3C[C@@H]3C(=O)N12 , what call appears in the results of this test? inactive

I would be grateful if you could indicate the recorded call for CC/C(CC(=O)CCC(=O)Nc1ccc(C)c(C)c1)=N\NC(=O)c1cc2ccccc2cc1O . inactive

Could you kindly confirm the outcome this assay logged for COc1ccc2oc(S(=O)(=O)N3CC(CCl)c4ccc([N+](=O)[O-])cc43)cc2c1 (centres undefined) ? active

What was the test verdict on O=CC1C(=O)Nc2nc3ccccc3n2C1c1ccccc1 (centres undefined) ? inactive

Each compound tested received a call. Report the one for O=C1/C(=C/c2ccc(Cl)cc2)N=C(c2ccccc2)N1C1Nc2cc3c(cc2S1)NC(N1C(=O)/C(=C/c2ccc(Cl)cc2)N=C1c1ccccc1)S3 (centres undefined) . inactive

Identify the outcome logged in this assay for the compound shown: O=C(Nc1cc(Cl)cc(Cl)c1)/C(Cc1nc2ccccc2nc1O)=N/NC(=O)c1ccncc1 inactive

Per the assay record, what outcome was assigned to Cc1cc(S(=O)(=O)Nc2nc(N)n[nH]2)c(SCC(=O)O)cc1Cl ? inactive

Check the results log: what was the call for CN(C)CCNCc1ccc2c(-c3ccccc3)nc3cc(Cl)c(Cl)cc3n12 ? inactive

What outcome does the record of this test show for CCS(=O)(=O)c1c2cc(OC)ccc2nc2ccc(OC)cc12 ? inactive

====

- System: MCF7
- assay: NCI tumour cell line growth inhibition, 48 h
Calls of active or inactive are those of the source. Rule as the data show it: active = GI50 up to about 1.1 µM and inactive = higher.
Outcome field: choose from active, inactive

Record lookup: outcome of this test for Oc1ccc(/C=C\c2nnc(/C=C\c3ccc(O)c(O)c3)s2)cc1O ? inactive

Dear colleague, could you share the recorded outcome for Cc1c/c(=N\c2ccc3c(c2)c(N)cc(C)[n+]3C)nc(N)n1C when you have a moment? inactive

Hi, do you know how CN(C)CCNC1=CC(=O)c2nc3ccccc3c3ccnc1c23 came out in this test? inactive

Hey, what did the test say about COc1ccc(OC)c2nc3c(C(=O)NCCN(C)C)cccc3nc12 ? inactive

Write down the call the test reported for this compound. Item: C=C(C)COC(=O)COCC(=O)OCC(=C)C inactive

Kindly provide the recorded test outcome for the following compound: COC(=O)c1cc(/C=C\c2cc(OC)ccc2OC)ccc1OC inactive

Call for entry O=C(Oc1ccccn1)c1cc2cc(CCl)ccc2oc1=O : inactive

For O=C(Cn1c(=O)oc2ccc(C(=O)c3ccc(F)cc3)cc21)c1ccccc1 , what call appears in the results of this test? inactive

Recorded test outcome, item COc1ccc(-n2cnc3c(NC(Cc4ccccc4)C(=O)O)ncnc32)cc1 (centres undefined) inactive

Dear colleague, could you share the recorded outcome for Cc1cc(S(=O)(=O)Nc2nc(N)n[nH]2)c(SCC(=O)O)cc1Cl when you have a moment? inactive

Hi, sorry to bother you, what did the test record for CCOCC(=O)N(C)c1cccc2c3c(n(C)c12)CCCCC3 ? inactive

Which outcome was entered for the compound O=C(CSCC(=O)N/N=C\c1cccc(Br)c1)N/N=C\c1cccc(Br)c1 in this test? inactive

// outcome(item) with item = CC(=O)O[C@H]1C[C@H](O[C@H]2[C@@H](O)C[C@H](O[C@H]3[C@@H](O)C[C@H](O[C@H]4CC[C@@]5(C)[C@H](CC[C@@H]6[C@@H]5CC[C@]5(O)[C@@H](C7=CC(=O)OC7)CC[C@]65O)C4)O[C@@H]3C)O[C@@H]2C)O[C@H](C)[C@H]1O[C@@H]1O[C@H](CO)[C@@H](O)[C@H](O)[C@H]1O active

Just curious, what result did O=S1(=O)CCC2=CC(C(F)(F)F)=CC(C(F)(F)F)=CN21 get here? active

# outcome recorded in this test, key = C/C(=C\COP(=O)(O)OP(=O)(O)O)CC/C=C(\C)CNc1c(F)c(F)c(F)c(F)c1F inactive

What did the test return for COC(=O)C1=C(OC(=O)/C(=C/c2ccc(Cl)cc2)c2ccc(Cl)cc2)C(C(=O)OC)[C@@]2(O)[C@@H](C(=O)OC)[C@H](C)C[C@@H]1[C@@H]2C(=O)OC (some centres undefined) ? inactive

Any idea what this test logged for OCC1(CNc2cc(Cl)ncn2)CCC1 ? inactive

How was Cn1cnc([N+](=O)[O-])c1Sc1nc(N)nc2c1ncn2Cc1ccccc1 classified in this test? inactive

Identify the outcome logged in this assay for the compound shown: CC(CNC(N)=O)NC(N)=O (centres undefined) inactive

The reported numbers originate from ChEMBL document CHEMBL1201862.
